measured-target: Cyclin E1 (Homo sapiens, UniProt P24864+Q96SW2)
Sequence (P24864 whole entry): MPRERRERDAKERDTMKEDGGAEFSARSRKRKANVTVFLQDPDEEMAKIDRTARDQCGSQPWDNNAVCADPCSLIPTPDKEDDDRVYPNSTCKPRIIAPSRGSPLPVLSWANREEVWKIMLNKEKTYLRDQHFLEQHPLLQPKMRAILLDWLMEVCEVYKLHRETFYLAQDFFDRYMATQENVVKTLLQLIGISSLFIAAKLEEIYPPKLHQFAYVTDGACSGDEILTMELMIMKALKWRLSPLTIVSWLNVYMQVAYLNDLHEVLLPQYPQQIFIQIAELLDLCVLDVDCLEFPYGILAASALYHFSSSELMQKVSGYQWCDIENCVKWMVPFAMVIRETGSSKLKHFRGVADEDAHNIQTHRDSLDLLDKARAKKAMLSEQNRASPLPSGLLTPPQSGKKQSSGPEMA
Sequence (Q96SW2 whole entry): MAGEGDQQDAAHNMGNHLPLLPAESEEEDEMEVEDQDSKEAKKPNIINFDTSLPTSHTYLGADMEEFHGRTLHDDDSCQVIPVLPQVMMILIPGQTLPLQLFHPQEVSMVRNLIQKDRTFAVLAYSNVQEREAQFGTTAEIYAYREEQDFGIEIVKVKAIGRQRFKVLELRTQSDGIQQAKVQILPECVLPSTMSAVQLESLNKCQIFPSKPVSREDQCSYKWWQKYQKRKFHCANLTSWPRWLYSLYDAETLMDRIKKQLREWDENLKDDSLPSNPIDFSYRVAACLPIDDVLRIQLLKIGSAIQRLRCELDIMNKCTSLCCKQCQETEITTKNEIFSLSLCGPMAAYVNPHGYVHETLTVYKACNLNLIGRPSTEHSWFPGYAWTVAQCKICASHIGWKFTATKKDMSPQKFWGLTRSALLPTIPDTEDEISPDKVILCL
Sequence (Q16531 whole entry partner): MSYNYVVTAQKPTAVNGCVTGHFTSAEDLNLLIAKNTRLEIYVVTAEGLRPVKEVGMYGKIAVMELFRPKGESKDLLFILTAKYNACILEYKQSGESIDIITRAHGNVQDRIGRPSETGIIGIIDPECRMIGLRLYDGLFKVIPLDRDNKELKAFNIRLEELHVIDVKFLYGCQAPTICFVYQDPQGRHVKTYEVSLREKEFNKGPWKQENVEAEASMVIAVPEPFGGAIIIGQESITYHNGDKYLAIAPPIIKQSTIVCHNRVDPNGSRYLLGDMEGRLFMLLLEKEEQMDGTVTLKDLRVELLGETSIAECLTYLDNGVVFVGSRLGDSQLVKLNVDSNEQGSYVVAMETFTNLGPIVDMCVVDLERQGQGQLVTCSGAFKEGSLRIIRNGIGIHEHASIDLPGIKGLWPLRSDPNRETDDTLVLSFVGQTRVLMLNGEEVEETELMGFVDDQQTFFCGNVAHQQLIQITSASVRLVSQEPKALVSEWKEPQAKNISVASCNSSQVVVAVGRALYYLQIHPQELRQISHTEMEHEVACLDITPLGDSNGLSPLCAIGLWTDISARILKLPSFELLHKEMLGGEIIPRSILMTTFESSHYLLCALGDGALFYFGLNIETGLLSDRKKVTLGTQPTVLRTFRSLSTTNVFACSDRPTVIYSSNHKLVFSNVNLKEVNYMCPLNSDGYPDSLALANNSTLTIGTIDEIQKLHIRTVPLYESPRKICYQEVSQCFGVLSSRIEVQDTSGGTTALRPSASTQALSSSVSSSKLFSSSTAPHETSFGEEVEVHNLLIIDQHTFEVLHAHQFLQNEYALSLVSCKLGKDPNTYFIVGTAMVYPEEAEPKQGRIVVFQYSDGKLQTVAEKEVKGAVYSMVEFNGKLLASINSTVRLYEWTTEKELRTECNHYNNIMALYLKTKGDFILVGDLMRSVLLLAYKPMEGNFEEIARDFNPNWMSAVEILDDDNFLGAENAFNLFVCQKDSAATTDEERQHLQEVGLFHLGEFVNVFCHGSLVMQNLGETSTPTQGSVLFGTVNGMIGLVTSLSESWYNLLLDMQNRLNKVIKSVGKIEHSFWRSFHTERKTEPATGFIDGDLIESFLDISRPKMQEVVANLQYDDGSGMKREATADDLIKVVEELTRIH
test: Cyclin E1 Cellular Degradation Assay (MSD)
Type: cell-based
Parameters: endogenous in cells; host or cells: OVCAR3
setup-conditions: Cyclin E1 cellular degradation, maximum degradation
Procedure: Culturing cells: On Day 0, OVCAR3 cells were plated at 15,000 cells/well in 40 μL of culture medium (RPMI1640, 20% FBS, 0.01 insulin, 1% Anti/Anti) in a 384 well cell culture plate. Cell cultures were incubated for 24 hours at 37° C. and 5% CO2. […] Collecting data: After thawing, 25 μL of lysate was transferred to a coated MSD plate. […] After the final wash, 35 μL of 1× Read Buffer (MSD R92TC-1) was added to each well and the data was captured using the MSD plate reader. […]
metric: Dmax (%)

compound | Dmax / %
COc1c(COC(=O)Nc2ccc(Oc3cc(F)c(F)cc3C)cc2F)ccc2c1C(=O)N(C1CCC(=O)NC1=O)C2 (stereo not shown) | 106
COc1cc(Oc2ccc(F)cc2C)ccc1NC(=O)OCc1ccc2c(c1OC)C(=O)N(C1CCC(=O)NC1=O)C2 (stereo not shown) | 109
COc1c(COC(=O)Nc2ccc(Oc3cccc(F)c3)cc2Cl)ccc2c1C(=O)N(C1CCC(=O)NC1=O)C2 (stereo not shown) | 104
COc1c(COC(=O)Nc2ccc(Oc3ccc(F)c(F)c3)cc2)ccc2c1C(=O)N(C1CCC(=O)NC1=O)C2 (stereo not shown) | 110
COc1c(COC(=O)Nc2ccc(Nc3cccc(F)c3)cc2)ccc2c1C(=O)N(C1CCC(=O)NC1=O)C2 (stereo not shown) | 86
COc1c(COC(=O)Nc2ccc(Oc3cc(F)c(F)cc3Cl)cc2F)ccc2c1C(=O)N(C1CCC(=O)NC1=O)C2 (stereo not shown) | 107
COc1c(COC(=O)Nc2ccc(Oc3ccc(F)cc3F)cc2C)ccc2c1C(=O)N(C1CCC(=O)NC1=O)C2 (stereo not shown) | 106
